- System: Klebsiella aerogenes
- protocol-summary: Antibacterial activity against Enterobacter aerogenes after 18 to 22 hrs by […]
- Format: functional
measured-metric: MIC

Example compounds with recorded MIC:
>  <compound>
Ic1ccc(-c2csc(N/N=C/c3cccs3)n2)cc1

>  <MIC>
> 128 µg/mL

$$$$
>  <compound>
CCC(CC)=NNc1nc(-c2ccc(I)cc2)cs1

>  <MIC>
16 µg/mL

$$$$

Now let's try a different one.
Asked: Record CC1CCC/C(=N\Nc2nc(-c3ccc(I)cc3)cs2)C1 (stereo not drawn) : what is its MIC with Klebsiella aerogenes?
Given back: > 128 µg/mL

* * *

- protocol-summary: Antiproliferative activity against human Hep2 cells assessed as cell survival fraction at 50 ug/mL after 24 hrs by MTT assay
- Type: cell-based
- measurement-conditions: HEp-2 cells, read-out: Survival
measured-metric: viability at 24 h, 50 ug/mL (%)
Answers are plain numbers, in %.

Previously resolved entries follow.
>  <compound>
CCC(CC)=NNc1nc(-c2ccc(I)cc2)cs1

>  <viability at 24 h, 50 ug/mL [%]>
45

$$$$
>  <compound>
CCCCC/C(C)=N/Nc1nc(-c2ccc(I)cc2)cs1

>  <viability at 24 h, 50 ug/mL [%]>
22

$$$$
>  <compound>
CCC/C(C)=N/Nc1nc(-c2ccc(I)cc2)cs1

>  <viability at 24 h, 50 ug/mL [%]>
62

$$$$
>  <compound>
CC1CCC/C1=N\Nc1nc(-c2ccc(I)cc2)cs1 (stereo not drawn)

>  <viability at 24 h, 50 ug/mL [%]>
12

$$$$

Each compound below has a recorded value; state its viability at 24 h, 50 ug/mL.
1. C/C(=N\Nc1nc(-c2ccc(I)cc2)cs1)c1ccncc1
2. CC1CC/C(=N\Nc2nc(-c3ccc(I)cc3)cs2)C1 (stereo not drawn)

Given back:
10
28

Would you mind giving viability at 24 h, 50 ug/mL for every compound in the list below?
1. Ic1ccc(-c2csc(N/N=C/c3cccc4ccccc34)n2)cc1
2. Clc1ccccc1C(c1ccccc1)(c1ccccc1)n1ccnc1

Given back:
1. 5
2. 32

Origin of the recorded values: ChEMBL document CHEMBL2034842
